All figures here come from patent US20210147371A1.

# Measurement protocol: Log P by HPLC on reversed phase columns (EEC directive 79/831 Annex V.A8)
# Format: physicochemical
# Measurement context: method [a]: LC-UV, acidic range, 0.1% formic acid in water and acetonitrile; compounds of formula (I); read-out: Log P
Collected chromatographic logP values appear next to each entry.
Give your answer as a number; write no unit.

Give recorded chromatographic logP. CN(C)C(=O)Oc1ccc(C2=NOC(C(F)(F)F)N2)cc1 (centres unmarked)
2.19

Next item in the queue.
Give recorded chromatographic logP. CC(=O)N1C(c2ccc(OC(=O)N(C)C)cc2)=NOC1C(F)(F)F (centres unmarked)
2.62

* * *

# Measurement protocol: Log P by HPLC on reversed phase columns (EEC directive 79/831 Annex V.A8)
# Assay type: physicochemical
Observed property: chromatographic logP
Give your answer as a number; write no unit.

Give recorded chromatographic logP. FC(F)(F)c1nc(-c2ccc3c(cnn3Cc3ccccc3)c2)no1
4.39
